# Procedure Details: Lipophilicity by RP-HPLC (polycratic capacity factor)
# Assay type: physicochemical
# Protocol Conditions: capacity factor extrapolated to 100% aqueous mobile phase, aqueous component pH 4.7
# Method: To quantitate the effect of hydrophobicity on the biological activity of the examined compounds, a relative lipophilicity scale was determined by RP-HPLC [20]. The polycratic capacity factor (log k′w) for each compound in Table 2 was experimentally determined (details in the experimental section) and compared with 1-octanol–water partition coefficient calculated (Clog P) with ACDLabs software (release 10.0; Advanced Chemistry Development, Inc., Toronto, ON, Canada). […]
Observed Property: Log k′w

Record excerpt, results attached:
{"Smiles Record": "COc1ccc(-c2c(CN3CCOCC3)cn3c2-c2cc(OC)c(OC)cc2CC3)cc1", "Number": 3.86}
{"Smiles Record": "CCOc1ccc(-c2c(CN3CCOCC3)cn3c2-c2cc(OCC)c(OCC)cc2CC3)cc1OCC", "Number": 4.31}
{"Smiles Record": "CCOC(=O)c1cn2c(c1-c1ccc(OCC)c(OCC)c1)-c1cc(OCC)c(OCC)cc1CC2", "Number": 5.49}
{"Smiles Record": "COc1cc2c(cc1OC)-c1c(-c3ccc(Cl)cc3)c(C#N)cn1CC2", "Number": 4.42}

I. CCOc1ccc(-c2c(C#N)cn3c2-c2cc(OCC)c(OCC)cc2CC3)cc1OCC
II. COc1ccc(-c2c(C=O)cn3c2-c2cc(OC)c(OC)cc2CC3)cc1
*Q* Hi there! Just curious which has the higher Log k′w between I and II . Select an item and report its label.
*A* I

---

# Tested System: UniProt P08183
# Procedure Details: Calcein-AM transport inhibition in MDCK-MDR1 cells overexpressing P-gp
# Protocol Conditions: read-out: P-gp, IC50; MDCK-MDR1 cells, calcein-AM; mean (SD), at least two independent experiments in triplicate
Observed Property: IC50 (nM)
Value expressed in nM; do not type the unit.

*Q* If you can, please state the reported IC50 value of COc1cc2c(cc1OC)CN(CCC=C1CCCc3c(OC)cccc31)CC2 [MC18, reference compound] .
*A* 1200

---

# Procedure Details: Kinetic solubility in PBS by RP-HPLC
# Assay type: physicochemical
# Protocol Conditions: phosphate buffered saline, 25 °C, pH 7.4, aqueous buffer, kinetic from dmso stock; ‘practically insoluble’ threshold of US and European Pharmacopoeia; read-out: Solubility category in buffered water solution at neutral pH
Observed Property: solubility at 2 h

{"Compound": "COc1ccc(-c2c(CN3CCOCC3)cn3c2-c2cc(OC)c(OC)cc2CC3)cc1 [Compound 8b]", "solubility at 2 h": "< 100 µg/mL"}

Consider now this further compound.
*Q* If you can, please state the reported solubility at 2 h value of CCOc1ccc(-c2c(CN3CCOCC3)cn3c2-c2cc(OCC)c(OCC)cc2CC3)cc1OCC [Compound 8c] .
*A* < 100 µg/mL

---

# Procedure Details: Kinetic solubility in PBS by RP-HPLC
# Assay type: physicochemical
# Protocol Conditions: phosphate buffered saline, 25 °C, aqueous buffer, kinetic from dmso stock; PBS (50 mM, pH 7.4, 0.15 M KCl) at 25 ± 1 °C; read-out: S (solubility)
Observed Property: solubility at 2 h (µM)

Record excerpt, results attached:
{"Molecule": "COc1ccc(-c2c(C=O)cn3c2-c2cc(OC)c(OC)cc2CC3)cc1 [Compound 4b]", "solubility at 2 h (µM)": 19.8}
{"Molecule": "COc1cc2c(cc1OC)-c1c(-c3ccc(Cl)cc3)c(C#N)cn1CC2 [Compound 6a]", "solubility at 2 h (µM)": 1.42}
{"Molecule": "COc1cc2c(cc1OC)-c1c(-c3ccc(Cl)cc3)c(C=O)cn1CC2 [Compound 4a]", "solubility at 2 h (µM)": 6.66}

P. CCOc1ccc(-c2c(CN3CCOCC3)cn3c2-c2cc(OCC)c(OCC)cc2CC3)cc1OCC [Compound 8c]
Q. CCOc1ccc(-c2c(C(=O)O)cn3c2-c2cc(OCC)c(OCC)cc2CC3)cc1OCC [Compound 5c]
R. CCOc1ccc(-c2c(C#N)cn3c2-c2cc(OCC)c(OCC)cc2CC3)cc1OCC [Compound 6c]
S. COc1ccc(-c2c(CN3CCOCC3)cn3c2-c2cc(OC)c(OC)cc2CC3)cc1 [Compound 8b]
*Q* Order the records by solubility at 2 h, with each subsequent value no larger than the one before. I would appreciate it if you listed the labels in the requested order.
*A* S, P, Q, R
(S: 112 µM, P: 41.7 µM, Q: 14.6 µM, R: 1.06 µM)

---

# Tested System: P-glycoprotein (P-gp) (Homo sapiens)
# Sequence (P08183 whole entry): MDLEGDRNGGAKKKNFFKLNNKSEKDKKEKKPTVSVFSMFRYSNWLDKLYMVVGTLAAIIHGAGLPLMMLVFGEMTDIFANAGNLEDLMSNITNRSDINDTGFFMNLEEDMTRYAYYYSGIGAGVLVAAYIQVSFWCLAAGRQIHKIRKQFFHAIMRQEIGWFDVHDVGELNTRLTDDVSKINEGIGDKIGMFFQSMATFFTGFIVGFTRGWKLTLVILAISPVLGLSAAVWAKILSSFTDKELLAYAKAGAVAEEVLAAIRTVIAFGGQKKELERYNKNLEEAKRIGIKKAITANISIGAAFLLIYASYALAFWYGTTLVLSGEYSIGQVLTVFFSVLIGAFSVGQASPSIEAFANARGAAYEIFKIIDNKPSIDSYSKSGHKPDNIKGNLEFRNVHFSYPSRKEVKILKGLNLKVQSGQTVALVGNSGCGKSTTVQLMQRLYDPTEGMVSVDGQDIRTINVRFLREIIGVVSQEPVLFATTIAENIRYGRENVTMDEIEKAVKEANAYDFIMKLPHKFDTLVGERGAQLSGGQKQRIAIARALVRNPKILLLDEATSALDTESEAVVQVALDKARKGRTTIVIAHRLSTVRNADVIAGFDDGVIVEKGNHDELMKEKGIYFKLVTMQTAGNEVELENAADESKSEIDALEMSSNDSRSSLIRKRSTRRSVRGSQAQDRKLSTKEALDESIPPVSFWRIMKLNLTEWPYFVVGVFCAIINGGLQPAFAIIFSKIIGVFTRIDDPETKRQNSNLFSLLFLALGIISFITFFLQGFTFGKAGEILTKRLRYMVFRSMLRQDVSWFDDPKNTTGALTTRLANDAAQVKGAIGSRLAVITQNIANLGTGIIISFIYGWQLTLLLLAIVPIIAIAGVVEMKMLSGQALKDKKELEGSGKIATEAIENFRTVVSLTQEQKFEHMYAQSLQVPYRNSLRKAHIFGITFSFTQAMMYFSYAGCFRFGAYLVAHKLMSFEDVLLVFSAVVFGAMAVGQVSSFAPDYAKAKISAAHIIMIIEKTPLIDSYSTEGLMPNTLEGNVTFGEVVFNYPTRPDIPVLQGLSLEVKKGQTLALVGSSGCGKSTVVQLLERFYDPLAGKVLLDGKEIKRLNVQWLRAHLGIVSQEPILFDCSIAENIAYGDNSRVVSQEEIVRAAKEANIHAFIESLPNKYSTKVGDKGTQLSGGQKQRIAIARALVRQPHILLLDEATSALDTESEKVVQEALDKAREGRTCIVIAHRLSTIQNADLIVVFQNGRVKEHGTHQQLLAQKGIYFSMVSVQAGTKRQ
# Procedure Details: Calcein-AM transport inhibition in MDCK-MDR1 cells overexpressing P-gp
# Protocol Conditions: P-gp, IC50, MDCK-MDR1 cells, calcein-AM; mean (SD), at least two independent experiments in triplicate
pIC50: −log10 of the molar value.
Observed Property: pIC50

{"Smiles Record": "COc1ccc(-c2c(C=O)cn3c2-c2cc(OC)c(OC)cc2CC3)cc1", "Number": 5.35}
{"Smiles Record": "COc1cc2c(cc1OC)-c1c(-c3ccc(Cl)cc3)c(C=O)cn1CC2", "Number": 4.60}
{"Smiles Record": "COc1cc2c(cc1OC)-c1c(-c3ccc(Cl)cc3)c(C#N)cn1CC2", "Number": 5.23}

---

# Tested System: human serum albumin (HSA) (Homo sapiens)
# Sequence (P02768 25-609): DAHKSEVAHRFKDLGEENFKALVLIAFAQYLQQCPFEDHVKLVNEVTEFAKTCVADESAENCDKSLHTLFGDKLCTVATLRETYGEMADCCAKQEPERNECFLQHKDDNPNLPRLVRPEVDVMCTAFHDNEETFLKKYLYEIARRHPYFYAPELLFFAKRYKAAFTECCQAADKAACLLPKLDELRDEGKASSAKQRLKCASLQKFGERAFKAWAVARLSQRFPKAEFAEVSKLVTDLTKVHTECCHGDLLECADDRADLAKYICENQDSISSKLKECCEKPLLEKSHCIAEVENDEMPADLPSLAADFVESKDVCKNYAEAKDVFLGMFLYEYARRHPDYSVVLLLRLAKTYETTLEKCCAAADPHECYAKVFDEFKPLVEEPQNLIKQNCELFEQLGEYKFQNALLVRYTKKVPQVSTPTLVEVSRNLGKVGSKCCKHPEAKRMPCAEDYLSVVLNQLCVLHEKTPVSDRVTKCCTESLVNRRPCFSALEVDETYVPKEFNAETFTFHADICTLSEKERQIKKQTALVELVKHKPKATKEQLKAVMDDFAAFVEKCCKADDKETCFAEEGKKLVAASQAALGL
# Procedure Details: Binding affinity to immobilized HSA by surface plasmon resonance (SPR)
pKd: −log10 of the molar value.
Observed Property: pKd

{"Smiles Record": "COc1cc2c(cc1OC)-c1c(-c3ccc(Cl)cc3)c(C#N)cn1CC2", "Observed Property": "pKd", "Number": 5.34}

1. CCOc1ccc(-c2c(C#N)cn3c2-c2cc(OCC)c(OCC)cc2CC3)cc1OCC
2. CCOc1ccc(-c2c(C(=O)O)cn3c2-c2cc(OCC)c(OCC)cc2CC3)cc1OCC
3. CCOc1ccc(-c2c(CN3CCOCC3)cn3c2-c2cc(OCC)c(OCC)cc2CC3)cc1OCC
*Q* Order the records by pKd, with each subsequent value no larger than the one before. I would appreciate it if you listed the labels in the requested order.
*A* 1, 2, 3
(1: 5.74, 2: 5.28, 3: 4.57)

---

# Tested System: human serum albumin (HSA) (Homo sapiens)
# Procedure Details: Binding affinity to immobilized HSA by surface plasmon resonance (SPR)
Observed Property: Kd (µM)

{"Molecule": "COc1cc2c(cc1OC)-c1c(-c3ccc(Cl)cc3)c(C=O)cn1CC2 [Compound 4a]", "Result Unit": "µM", "Kd": 1.6}

P. COc1ccc(-c2c(CN3CCOCC3)cn3c2-c2cc(OC)c(OC)cc2CC3)cc1 [Compound 8b]
Q. CCOC(=O)c1cn2c(c1-c1ccc(OCC)c(OCC)c1)-c1cc(OCC)c(OCC)cc1CC2 [Compound 7c]
R. COc1ccc(-c2c(C=O)cn3c2-c2cc(OC)c(OC)cc2CC3)cc1 [Compound 4b]
*Q* Order the records by Kd, with each subsequent value no larger than the one before. I would appreciate it if you listed the labels in the requested order.
*A* P, Q, R

---

# Tested System: multidrug-resistance-associated protein-1 (MRP1) (Homo sapiens, UniProt P33527)
# Sequence (P33527 whole entry): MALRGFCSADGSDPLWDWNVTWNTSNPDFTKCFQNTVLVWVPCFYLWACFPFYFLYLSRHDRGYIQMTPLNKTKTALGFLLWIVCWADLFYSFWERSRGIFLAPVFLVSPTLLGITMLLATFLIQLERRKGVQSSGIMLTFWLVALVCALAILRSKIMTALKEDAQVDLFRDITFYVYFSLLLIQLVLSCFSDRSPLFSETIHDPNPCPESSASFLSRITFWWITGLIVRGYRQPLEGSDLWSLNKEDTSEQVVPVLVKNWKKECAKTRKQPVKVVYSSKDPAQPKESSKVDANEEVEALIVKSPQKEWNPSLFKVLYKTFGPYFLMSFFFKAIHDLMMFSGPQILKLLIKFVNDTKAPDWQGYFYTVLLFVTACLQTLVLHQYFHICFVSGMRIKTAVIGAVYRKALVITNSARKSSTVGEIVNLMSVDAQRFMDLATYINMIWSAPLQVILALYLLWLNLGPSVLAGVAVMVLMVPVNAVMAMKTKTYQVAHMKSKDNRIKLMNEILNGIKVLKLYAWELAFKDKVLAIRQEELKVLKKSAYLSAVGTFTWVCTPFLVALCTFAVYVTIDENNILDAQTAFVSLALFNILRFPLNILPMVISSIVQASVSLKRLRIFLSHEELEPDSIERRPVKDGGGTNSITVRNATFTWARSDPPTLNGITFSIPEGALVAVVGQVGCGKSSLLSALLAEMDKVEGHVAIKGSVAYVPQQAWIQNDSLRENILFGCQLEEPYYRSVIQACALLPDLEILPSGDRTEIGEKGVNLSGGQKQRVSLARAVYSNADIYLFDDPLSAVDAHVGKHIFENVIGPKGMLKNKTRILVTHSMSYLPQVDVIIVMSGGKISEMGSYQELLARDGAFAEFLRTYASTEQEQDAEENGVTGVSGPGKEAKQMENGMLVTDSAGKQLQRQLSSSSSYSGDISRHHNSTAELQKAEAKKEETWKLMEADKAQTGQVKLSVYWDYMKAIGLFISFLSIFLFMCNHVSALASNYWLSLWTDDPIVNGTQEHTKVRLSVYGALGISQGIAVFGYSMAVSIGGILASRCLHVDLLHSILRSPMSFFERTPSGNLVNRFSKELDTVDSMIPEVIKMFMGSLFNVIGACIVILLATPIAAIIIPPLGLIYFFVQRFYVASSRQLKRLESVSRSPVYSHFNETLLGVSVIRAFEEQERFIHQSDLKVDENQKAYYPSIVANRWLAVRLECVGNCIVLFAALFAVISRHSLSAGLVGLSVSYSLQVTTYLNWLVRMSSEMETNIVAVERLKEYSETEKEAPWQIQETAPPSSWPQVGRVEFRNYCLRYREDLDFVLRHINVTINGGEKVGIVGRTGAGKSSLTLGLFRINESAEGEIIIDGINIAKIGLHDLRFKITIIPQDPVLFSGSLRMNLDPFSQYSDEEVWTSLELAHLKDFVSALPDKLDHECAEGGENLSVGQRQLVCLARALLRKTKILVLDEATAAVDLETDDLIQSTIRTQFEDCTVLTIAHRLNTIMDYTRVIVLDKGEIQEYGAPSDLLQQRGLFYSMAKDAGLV
# Procedure Details: Calcein-AM transport inhibition in MDCK-MRP1 cells overexpressing MRP1
pIC50: −log10 of the molar value.
Observed Property: pIC50

a. CCOc1ccc(-c2c(CN3CCOCC3)cn3c2-c2cc(OCC)c(OCC)cc2CC3)cc1OCC
b. CCOC(=O)c1cn2c(c1-c1ccc(OCC)c(OCC)c1)-c1cc(OCC)c(OCC)cc1CC2
*Q* Hi there! Just curious which has the higher pIC50 between a and b . Select an item and report its label.
*A* b

1. COc1cc2c(cc1OC)-c1c(-c3ccc(Cl)cc3)c(C#N)cn1CC2
2. COc1ccc(-c2c(C=O)cn3c2-c2cc(OC)c(OC)cc2CC3)cc1
*Q* Hi there! Just curious which has the higher pIC50 between 1 and 2 . Select an item and report its label.
*A* 2
(2: 5.19, 1: 4.78)

---

# Tested System: P-gp versus MRP1 (Homo sapiens)
# Procedure Details: Calcein-AM transport inhibition in MDCK-MDR1 cells overexpressing P-gp
# Protocol Conditions: human, MDCK-MDR1 cells and MDCK-MRP1 cells, probe calcein-AM
Observed Property: selectivity ratio

*Q* If you can, please state the reported selectivity ratio value of CCOc1ccc(-c2c(CN3CCOCC3)cn3c2-c2cc(OCC)c(OCC)cc2CC3)cc1OCC [Compound 8c] .
*A* ~30

---

# Tested System: multidrug-resistance-associated protein-1 (MRP1) (Homo sapiens, UniProt P33527)
# Procedure Details: Calcein-AM transport inhibition in MDCK-MRP1 cells overexpressing MRP1
Observed Property: pIC50
Schema: pIC50 number; meaning minus log10 of the concentration expressed in molar units.

{"Smiles Record": "COc1cc2c(cc1OC)-c1c(-c3ccc(Cl)cc3)c(C=O)cn1CC2", "pIC50": 4.66}

Consider now this further compound.
*Q* If you can, please state the reported pIC50 value of COc1ccc(-c2c(CN3CCOCC3)cn3c2-c2cc(OC)c(OC)cc2CC3)cc1 .
*A* 5.74
